Listing of recorded IC50 by entry.
Test system: human T-lymphocyte (CEM) cells
Assay: Cytostatic activity, CEM cell proliferation
Assay type: cell-based
Conditions: mean ± SD of three experiments; highest concentration tested 250 µM; 3 days; read-out: Toxicity (IC50) CEM

{"COMPOUND": "CNC(CC(C)C)C(=O)NC1C(=O)NC(CC(N)=O)C(=O)NC2C(=O)NC3C(=O)NC(C(=O)NC(C(=O)NCC(=O)Nc4ccc(-c5ccc(Cl)cc5)cc4)c4cc(O)cc(O)c4-c4cc3ccc4O)C(O)c3ccc(c(Cl)c3)Oc3cc2cc(c3OC2OC(CO)C(O)C(O)C2OC2CC(C)(N)C(O)C(C)O2)Oc2ccc(cc2Cl)C1O (stereo not drawn)", "TARGET_UNDER_TEST": "human T-lymphocyte (CEM) cells", "IC50": "1.6 µM"}

Query block: Indicate the recorded IC50 value for this compound: C#Cc1ccc(NC(=O)CNC(=O)C2NC(=O)C3NC(=O)C(NC(=O)C4NC(=O)C(CC(N)=O)NC(=O)C(NC(=O)C(CC(C)C)NC)C(O)c5ccc(c(Cl)c5)Oc5cc4cc(c5OC4OC(CO)C(O)C(O)C4OC4CC(C)(N)C(O)C(C)O4)Oc4ccc(cc4Cl)C3O)c3ccc(O)c(c3)-c3c(O)cc(O)cc32)cc1 (stereo not drawn)
Result block: > 250 µM

Query block: Indicate the recorded IC50 value for this compound: C#Cc1ccc2cc(C(=O)NCCCNC(=O)[C@H]3NC(=O)[C@H]4NC(=O)[C@H](NC(=O)[C@@H]5NC(=O)[C@H](CC(N)=O)NC(=O)[C@H](NC(=O)[C@@H](CC(C)C)NC)[C@H](O)c6ccc(c(Cl)c6)Oc6cc5cc(c6O[C@@H]5O[C@H](CO)[C@@H](O)[C@H](O)[C@H]5O[C@H]5C[C@](C)(N)[C@H](O)[C@H](C)O5)Oc5ccc(cc5Cl)[C@H]4O)c4ccc(O)c(c4)-c4c(O)cc(O)cc43)ccc2c1
Result block: 60 µM

---

System: E. faecalis VRE 6
Assay: MIC, broth microdilution, vancomycin-resistant E. faecalis VRE 6 (VanA)
Format: cell-based, Enterococcus faecalis
Settings: E. faecalis VRE 6; read-out: MIC
ENDPOINT_NAME: MIC (µM)
Numbers only here, please. The scale is µM.

{"COMPOUND": "C#Cc1ccc(C=Cc2ccc(NC(=O)CNC(=O)C3NC(=O)C4NC(=O)C(NC(=O)C5NC(=O)C(CC(N)=O)NC(=O)C(NC(=O)C(CC(C)C)NC)C(O)c6ccc(c(Cl)c6)Oc6cc5cc(c6OC5OC(CO)C(O)C(O)C5OC5CC(C)(N)C(O)C(C)O5)Oc5ccc(cc5Cl)C4O)c4ccc(O)c(c4)-c4c(O)cc(O)cc43)cc2)cc1 (stereo not shown) [Vanc-R]", "MIC (µM)": 3.13}
{"COMPOUND": "C#CCCC(=O)NCCCNC(=O)C1NC(=O)C2NC(=O)C(NC(=O)C3NC(=O)C(CC(N)=O)NC(=O)C(NC(=O)C(CC(C)C)NC)C(O)c4ccc(c(Cl)c4)Oc4cc3cc(c4OC3OC(CO)C(O)C(O)C3OC3CC(C)(N)C(O)C(C)O3)Oc3ccc(cc3Cl)C2O)c2ccc(O)c(c2)-c2c(O)cc(O)cc21 (stereo not shown) [Vanc-B]", "MIC (µM)": 50}
{"COMPOUND": "C#Cc1ccc(/C=C/C(=O)NCCNC(=O)[C@H]2NC(=O)[C@H]3NC(=O)[C@H](NC(=O)[C@@H]4NC(=O)[C@H](CC(N)=O)NC(=O)[C@H](NC(=O)[C@@H](CC(C)C)NC)[C@H](O)c5ccc(c(Cl)c5)Oc5cc4cc(c5O[C@@H]4O[C@H](CO)[C@@H](O)[C@H](O)[C@H]4O[C@H]4C[C@](C)(N)[C@H](O)[C@H](C)O4)Oc4ccc(cc4Cl)[C@H]3O)c3ccc(O)c(c3)-c3c(O)cc(O)cc32)cc1 [Vanc-Q]", "MIC (µM)": 6.25}
{"COMPOUND": "C#CCNC(=O)[C@H]1NC(=O)[C@H]2NC(=O)[C@H](NC(=O)[C@@H]3NC(=O)[C@H](CC(N)=O)NC(=O)[C@H](NC(=O)[C@@H](CC(C)C)NC)[C@H](O)c4ccc(c(Cl)c4)Oc4cc3cc(c4O[C@@H]3O[C@H](CO)[C@@H](O)[C@H](O)[C@H]3O[C@H]3C[C@](C)(N)[C@H](O)[C@H](C)O3)Oc3ccc(cc3Cl)[C@H]2O)c2ccc(O)c(c2)-c2c(O)cc(O)cc21 [Vanc-G]", "MIC (µM)": 100}
{"COMPOUND": "C#Cc1ccc(-c2ccc(C(=O)NCCCNC(=O)[C@H]3NC(=O)[C@H]4NC(=O)[C@H](NC(=O)[C@@H]5NC(=O)[C@H](CC(N)=O)NC(=O)[C@H](NC(=O)[C@@H](CC(C)C)NC)[C@H](O)c6ccc(c(Cl)c6)Oc6cc5cc(c6O[C@@H]5O[C@H](CO)[C@@H](O)[C@H](O)[C@H]5O[C@H]5C[C@](C)(N)[C@H](O)[C@H](C)O5)Oc5ccc(cc5Cl)[C@H]4O)c4ccc(O)c(c4)-c4c(O)cc(O)cc43)cc2)cc1 [Vanc-S]", "MIC (µM)": 0.78}
{"COMPOUND": "C#Cc1ccc(NC(=O)CNC(=O)C2NC(=O)C3NC(=O)C(NC(=O)C4NC(=O)C(CC(N)=O)NC(=O)C(NC(=O)C(CC(C)C)NC)C(O)c5ccc(c(Cl)c5)Oc5cc4cc(c5OC4OC(CO)C(O)C(O)C4OC4CC(C)(N)C(O)C(C)O4)Oc4ccc(cc4Cl)C3O)c3ccc(O)c(c3)-c3c(O)cc(O)cc32)cc1 (stereo not shown) [Vanc-N]", "MIC (µM)": 3.13}

Then there is this compound:
Query block: # return MIC for C#Cc1ccc2cc(C(=O)NCCCNC(=O)[C@H]3NC(=O)[C@H]4NC(=O)[C@H](NC(=O)[C@@H]5NC(=O)[C@H](CC(N)=O)NC(=O)[C@H](NC(=O)[C@@H](CC(C)C)NC)[C@H](O)c6ccc(c(Cl)c6)Oc6cc5cc(c6O[C@@H]5O[C@H](CO)[C@@H](O)[C@H](O)[C@H]5O[C@H]5C[C@](C)(N)[C@H](O)[C@H](C)O5)Oc5ccc(cc5Cl)[C@H]4O)c4ccc(O)c(c4)-c4c(O)cc(O)cc43)ccc2c1 [Vanc-T] , test system: E. faecalis VRE 6
Result block: 3.13
